- study system: Acetylcholinesterase (Electrophorus electricus, UniProt O42275)
- Sequence (O42275 whole entry): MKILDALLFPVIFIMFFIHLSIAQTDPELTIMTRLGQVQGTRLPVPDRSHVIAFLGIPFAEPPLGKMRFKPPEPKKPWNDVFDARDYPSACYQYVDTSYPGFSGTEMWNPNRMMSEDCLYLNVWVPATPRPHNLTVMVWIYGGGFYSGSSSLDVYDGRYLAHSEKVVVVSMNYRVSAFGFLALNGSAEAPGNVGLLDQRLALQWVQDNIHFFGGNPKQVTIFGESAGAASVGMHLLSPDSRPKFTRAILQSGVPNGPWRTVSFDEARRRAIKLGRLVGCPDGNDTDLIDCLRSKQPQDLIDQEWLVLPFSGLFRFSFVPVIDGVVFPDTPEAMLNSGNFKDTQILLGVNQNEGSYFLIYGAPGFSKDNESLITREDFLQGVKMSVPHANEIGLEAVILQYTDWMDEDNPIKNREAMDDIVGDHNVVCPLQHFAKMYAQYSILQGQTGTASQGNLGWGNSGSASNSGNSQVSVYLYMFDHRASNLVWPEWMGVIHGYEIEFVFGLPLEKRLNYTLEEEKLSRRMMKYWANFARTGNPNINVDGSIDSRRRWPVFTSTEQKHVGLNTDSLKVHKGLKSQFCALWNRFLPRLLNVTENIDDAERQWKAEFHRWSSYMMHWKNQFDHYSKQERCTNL
measured parameter: pIC50
pIC50 field: float, defined as -log10 of concentration (mol/L).

{"substance smiles": "O[C@@H]1CCCC[N+]23C[C@@H]4C=C5CC/C=C\\CCCCN6CC[C@@H]4[C@](CC[C@H]12)(C6)[C@H]53", "pIC50": 3.33}

Kindly consider the entry below.
Item `O[C@H]1CCCC[N+]23C[C@@H]4C=C5CC/C=C\CCCCN6CC[C@@H]4[C@](CC[C@H]12)(C6)[C@H]53` has what recorded pIC50?
3.46
